Test system: HEK-293T
measurement protocol: cells
Type: ADME, cell-based
condition: Homo sapiens, 24 h
Description: Cytotoxicity in HEK293T cells assessed as reduction in cell viability incubated for 24 hrs under hypoxic condition by MTT assay
Consider the following compounds and their measured pIC50 readings.
Quick note: pIC50 values are minus log10 of concentrations in mol/L.

> print(dat)
                                     smiles  result
1  COc1cccc(C=O)c1OCc1cn(CCCOc2ccc3ccc(=O)oc3c2)nn1    4.52
2  C#CCOc1ccc(/C=N/Cc2ccc(S(N)(=O)=O)cc2)cc1    3.40
3  CCN(CC)c1ccc(/C=N/Cc2ccc(S(N)(=O)=O)cc2)c(OCc2cn(CCCOc3ccc4ccc(=O)oc4c3)nn2)c1    4.53

Now turn to the next compound.
Give reported pIC50 value for C#CCOc1ccc(/C=N/Cc2ccc(S(N)(=O)=O)cc2)cc1OC
3.27
